Could you please report measured inhibition at 0.01 µM for the items listed next?
TARGET: BIR3 domain of human cIAP-1 (residues 267-363) (Homo sapiens (Human))
EXPERIMENT DESCRIPTION: cIAP-1 in vitro competitive displacement binding assay (fluorescence polarization; Probe A AVPIK(5&6FAM)-amide or Probe B AbuRPFK(5&6FAM)-amide)
COND: 3 h; Probe B, @ 0.01 μM; read-out: IC50 or PI cIAP1: PI
Counter-ions that a name gives are not always drawn.

Problem: Returns the measured inhibition at 0.01 µM for the input compound. Input: `C[C@@H]1CN(CC(=O)N2CC(C)(C)c3cnc(Cc4ccccc4)cc32)[C@@H](Cn2cccn2)CN1`
Solution: 69%

Problem: Returns the measured inhibition at 0.01 µM for the input compound. Input: C[C@@H]1CN(CC(=O)N2CC(C)(C)c3cnc(Cc4ccccc4)cc32)[C@@H](C(=O)N2CCOCC2)CN1 [Example 101, hydrochloride salt]
Solution: 62%

Problem: Returns the measured inhibition at 0.01 µM for the input compound. Input: `COC[C@H]1CN[C@H](C)CN1CC(=O)N1CC(C)(C)c2cnc(Cc3ccc(Cl)cc3)cc21`
Solution: 86%

Problem: Returns the measured inhibition at 0.01 µM for the input compound. Input: C[C@@H]1CN(CC(=O)N2CC(C)(COCc3ccccc3)c3cnc(Cc4ccccc4)cc32)[C@@H](C(=O)N(C)C)CN1 (stereo partly shown) [Example 104, hydrochloride salt]
Solution: 71%

----------
TARGET: BIR3 domain of human XIAP (residues 252-350) (Homo sapiens (Human))
EXPERIMENT DESCRIPTION: XIAP in vitro competitive displacement binding assay (fluorescence polarization)
COND: read-out: IC50 or PI Xiap: IC50
Structures can show the parent of a compound that is named as a salt.
Could you please report measured IC50 for the items listed next?
Report as a plain number; the unit nM is understood.

Problem: Returns the measured IC50 for the input compound. Input: C[C@@H]1CN(CC(=O)N2CC3(CCCC3)c3ccc(Cl)cc32)CCN1 [Example 50, hydrochloride salt]
Solution: 14000

Problem: Returns the measured IC50 for the input compound. Input: C[C@@H]1CN(CC(=O)N2CCc3cc(F)c(-c4ccccc4)cc32)CCN1 [Example 24, hydrochloride salt]
Solution: 7400

Problem: Returns the measured IC50 for the input compound. Input: C[C@@H]1CN(CC(=O)N2CCc3cc(F)ccc32)CCN1 [Example 9]
Solution: 130000

Problem: Returns the measured IC50 for the input compound. Input: COC[C@H]1CN[C@H](C)CN1CC(=O)N1CC(C)(C)c2cnc(C(C)c3ccccc3)cc21 (some centres unmarked) [Example 87, hydrochloride salt]
Solution: 240

Problem: Returns the measured IC50 for the input compound. Input: C=C(c1ccccc1)c1cc2c(cn1)C(C)(C)CN2C(=O)CN1C[C@@H](C)NC[C@@H]1COC [Example 93, hydrochloride salt]
Solution: 490

Problem: Returns the measured IC50 for the input compound. Input: CC[C@@H]1COCCN1C[C@H]1CN[C@H](C)CN1CC(=O)N1CC(C)(C)c2ncc(C(C)(F)F)cc21 [Example 253, dihydrochloride]
Solution: 50

Problem: Returns the measured IC50 for the input compound. Input: COC[C@H]1CN[C@H](C)CN1CC(=O)N1CC(C)(C)c2cnc(-c3cnn(C)c3)cc21 [Example 124, dihydrochloride]
Solution: 4000

Problem: Returns the measured IC50 for the input compound. Input: C[C@@H]1CN(CC(=O)N2CC(C)(C)c3ccc(C#N)cc32)CCN1 [Example 162]
Solution: 5500

Problem: Returns the measured IC50 for the input compound. Input: C[C@@H]1CN(CC(=O)N2CC(C)(C)c3cnc(Cc4ccccc4)cc32)[C@@H](CF)CN1 [Example 121, hydrochloride]
Solution: 190

Problem: Returns the measured IC50 for the input compound. Input: C[C@@H]1CN(CC(=O)N2CC(C)(C)c3c[n+]([O-])c(Cc4ccc(F)cc4F)cc32)[C@@H](C(=O)N(C)C)CN1 [Example 167, hydrochloride]
Solution: 100

Problem: Returns the measured IC50 for the input compound. Input: C[C@@H]1CN(CC(=O)N2CC3(Cc4ccccc4C3)c3ccc(Cl)cc32)[C@@H](Cn2cccn2)CN1 [Example 142, hydrochloride]
Solution: 220

Problem: Returns the measured IC50 for the input compound. Input: CCCC(F)(F)c1cc2c(cn1)C(C)(C)CN2C(=O)CN1C[C@@H](C)NC[C@@H]1Cc1nccs1 [Example 233, hydrochloride]
Solution: 76

Problem: Returns the measured IC50 for the input compound. Input: C[C@@H]1CN(CC(=O)N2CC(C)(C)c3ncc(Cc4ccc(F)cc4)cc32)[C@@H](CN2CCOCC2)CN1 [Example 234, dihydrochloride]
Solution: 74

Problem: Returns the measured IC50 for the input compound. Input: COC[C@H]1CN[C@H](C)CN1CC(=O)N1C[C@@](C)(c2cc(C)no2)c2ccc(Cc3ccccc3)cc21 [Example 175, hydrochloride]
Solution: 110
